Molecular target: recombinant human Mcl-1 (Mcl-1/Bim interaction) (Homo sapiens (Human), UniProt Q07820)
Sequence (Q07820 171-327): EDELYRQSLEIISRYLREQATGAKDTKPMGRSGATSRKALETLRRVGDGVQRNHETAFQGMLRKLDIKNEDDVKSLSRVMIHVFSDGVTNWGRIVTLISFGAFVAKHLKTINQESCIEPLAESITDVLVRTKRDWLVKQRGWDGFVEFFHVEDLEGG
Assay: biochemical
Type: binding
Conditions: cell free Mcl-1:Bim TR-FRET; read-out: Mcl-1 HTRF IC50
Entries and their pIC50
// scale note: pIC50 = -log10(conc_M); give the bare number

CO[C@@]1(CN2CCN(C3COC3)CC2)/C=C/C[C@H](C)[C@@H](C)S(=O)(=O)NC(=O)c2ccc3c(n2)N(C[C@@H]2CC[C@H]21)C[C@@]1(CCCc2cc(Cl)ccc21)CO3 [Example 19] = 9.90

Lab note: next compound to report on.
[in] Lab note: need pIC50 for CO[C@]1(CN2CCN3CCN(C(C)=O)C[C@@H]3C2)/C=C/C[C@H](C)[C@@H](C)S(=O)(=O)NC(=O)c2ccc3c(c2)N(C[C@@H]2CC[C@H]21)C[C@@]1(CCCc2cc(Cl)ccc21)CO3 (single isomer, unassigned) [Example 230] on recombinant human Mcl-1 (Mcl-1/Bim interaction) (Homo sapiens (Human), UniProt Q07820), anyone have it?
[out] 10.29

---

Biological target: recombinant human Mcl-1 (Mcl-1/Bim interaction) (Homo sapiens (Human))
Assay: biochemical
Assay type: binding
Conditions: cell free Mcl-1:Bim TR-FRET; read-out: Mcl-1 HTRF IC50
value-kind: IC50 (nM)
Unit nM implied. Number only.

Solved entries:
CO[C@]1(CN2CCN3CCN(C(C)=O)C[C@@H]3C2)/C=C/C[C@H](C)[C@@H](C)S(=O)(=O)NC(=O)c2ccc3c(c2)N(C[C@@H]2CC[C@H]21)C[C@@]1(CCCc2cc(Cl)ccc21)CO3 (stereo in doubt) [Example 218] = 0.142
CO[C@@]1(C(=O)N(C)C)/C=C/C[C@H](C)[C@@H](C)S(=O)(=O)NC(=O)c2ccc3c(c2)N(C[C@@H]2CC[C@H]21)C[C@@]1(CCCc2cc(Cl)ccc21)CO3 [Example 176] = 0.118
C[C@@H]1[C@@H](C)C/C=C/[C@@](O)(CN2CCN3CCOC[C@@H]3C2)[C@@H]2CC[C@H]2CN2C[C@@]3(CCCc4cc(Cl)ccc43)COc3ccc(cc32)C(=O)NS1(=O)=O [Example 193] = 0.096
CO[C@]1(C(=O)N(C)C)/C=C/C[C@H](C)[C@@H](C)S(=O)(=O)NC(=O)c2ccc3c(c2)N(C[C@@H]2CC[C@H]21)C[C@@]1(CCCc2cc(Cl)ccc21)CO3 [Example 177] = 0.153
CCO[C@]1(CN2CCN3CCOC[C@@H]3C2)CCC[C@H](C)[C@@H](CCOC)S(=O)(=O)NC(=O)c2ccc3c(c2)N(C[C@@H]2CC[C@H]21)C[C@@]1(CCCc2ccccc21)CO3 [Example 517] = 0.259

[in] Return reported IC50; argument: CO[C@]1(CN2CCN3CCCC[C@@H]3C2)/C=C/C[C@H](C)[C@@H](CCO[Si](c2ccccc2)(c2ccccc2)C(C)(C)C)S(=O)(=O)NC(=O)c2ccc3c(c2)N(C[C@@H]2CC[C@H]21)C[C@@]1(CCCc2cc(Cl)ccc21)CO3 [Example 359]
[out] 2.08

[in] Follow-up entry: CC(C)N(CCO)C[C@]1(O)/C=C/C[C@H](C)[C@@H](C)S(=O)(=O)NC(=O)c2ccc3c(c2)N(C[C@@H]2CC[C@H]21)C[C@@]1(CCCc2cc(Cl)ccc21)CO3 [Example 126]
[out] 0.627

[in] Follow-up entry: C[C@@H]1[C@@H](C)C/C=C/[C@@](O)(CNC(C)(C)C)[C@@H]2CC[C@H]2CN2C[C@@]3(CCCc4cc(Cl)ccc43)COc3ccc(cc32)C(=O)NS1(=O)=O [Example 125]
[out] 6.1

[in] Follow-up entry: CC[C@@H]1CC/C=C/[C@@](CN2CCN3CCCC[C@@H]3C2)(OC)[C@@H]2CC[C@H]2CN2C[C@@]3(CCCc4cc(Cl)ccc43)COc3ccc(cc32)C(=O)N(C)S1(=O)=O [Example 33]
[out] 8.25

[in] Follow-up entry: C[C@@H]1[C@@H](C)C/C=C/[C@]2(CN(Cc3ccccc3)CCO2)[C@@H]2CC[C@H]2CN2C[C@@]3(CCCc4cc(Cl)ccc43)COc3ccc(cc32)C(=O)NS1(=O)=O [Example 138]
[out] 26.7
